tested.system: ai5γ group II intron
test.details: Radioanalytic in vitro splicing assay, splicing inhibition constants
Format: biochemical, Saccharomyces cerevisiae
experimental.setup: Supplementary table 1; read-out: Ki ai5γ intron
Reported Ki values follow for various compounds

Example entries and their recorded answers appear below.
[
  {
    "molecule": "COc1ccc(Nc2ncnc3ccccc23)cc1",
    "result": "> 100 µM"
  },
  {
    "molecule": "c1ccc(-c2ncc3ccccc3n2)nc1",
    "result": "> 100 µM"
  },
  {
    "molecule": "Clc1cccc(CNc2nc(-c3ccccn3)nc3ccccc23)c1",
    "result": "2.6 µM"
  },
  {
    "molecule": "CC(C)(C)c1ccc(Nc2nc(-c3ccncc3)nc3ccccc23)cc1",
    "result": "> 100 µM"
  },
  {
    "molecule": "CC(C)(C)c1cccc(CNc2nc(-c3ccccn3)nc3ccccc23)c1",
    "result": "6.4 µM"
  },
  {
    "molecule": "CC(C)(C)c1ccc(Nc2nc(-c3ccccn3)nc3ccccc23)cc1",
    "result": "11 µM"
  },
  {
    "molecule": "Nc1nc(-c2ccccn2)nc2ccccc12",
    "result": "> 100 µM"
  },
  {
    "molecule": "c1ccc(Nc2ncnc3ccccc23)cc1",
    "result": "> 100 µM"
  },
  {
    "molecule": "c1ccc(CNc2ncnc3ccccc23)cc1",
    "result": "> 100 µM"
  },
  {
    "molecule": "FC(F)(F)c1cccc(CNc2nc(-c3ccccn3)nc3cc(Cl)ccc23)c1",
    "result": "20 µM"
  }
]

What Ki value was documented for this compound, FC(F)(F)c1cccc(CNc2nc(-c3ccccn3)nc3ccccc23)c1 ? 5.6 µM

Request: COc1cccc(CNc2nc(-c3ccccn3)nc3ccccc23)c1 55 µM
